Test system: Factor 11 activity
protocol.notes: Factor 11 protein activity, F11 assay based on clotting time (Example 45)
Type: in vivo, cynomolgus monkeys
cond: day 71; escalating dose regimen
measured.attribute: percent inhibition of Factor 11 activity, relative to PBS control (%)

{"substance": "ISIS 417002: MOE gapmer, nucleobases 1275 to 1318 of SEQ ID NO: 1 (Table 8) (antisense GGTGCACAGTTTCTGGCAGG; MOE gapmer, wing and gap sizes not given here)", "tgt": "Factor 11 activity", "quantitative.result": 30}
{"substance": "ISIS 416850: MOE gapmer, nucleobases 1275 to 1318 of SEQ ID NO: 1 (Table 8) (antisense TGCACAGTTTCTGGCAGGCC; MOE gapmer, wing and gap sizes not given here)", "tgt": "Factor 11 activity", "quantitative.result": 57}
{"substance": "ISIS 416864: MOE gapmer, nucleobases 1275 to 1318 of SEQ ID NO: 1 (Table 8) (antisense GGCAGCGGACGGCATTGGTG; MOE gapmer, wing and gap sizes not given here)", "tgt": "Factor 11 activity", "quantitative.result": 10}
{"substance": "ISIS 416858: MOE gapmer, nucleobases 1275 to 1318 of SEQ ID NO: 1 (Table 8) (antisense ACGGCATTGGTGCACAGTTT; MOE gapmer, wing and gap sizes not given here)", "tgt": "Factor 11 activity", "quantitative.result": 71}
{"substance": "ISIS 416838: MOE gapmer, nucleobases 1018 to 1042 of SEQ ID NO: 1 (Table 6) (antisense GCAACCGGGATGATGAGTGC; MOE gapmer, wing and gap sizes not given here)", "tgt": "Factor 11 activity", "quantitative.result": 12}
